test system: PXR homodimer (NR concentration 270 nM); assay: PBM binding z-score (relative to random genomic background probes); higher = stronger binding; sequences stand for … in GC…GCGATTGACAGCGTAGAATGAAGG
For each record, write down the corresponding PBM binding z-score.
Answers are plain numbers.

# count of solved cases: 3
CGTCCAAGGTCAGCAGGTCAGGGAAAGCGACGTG 0.492
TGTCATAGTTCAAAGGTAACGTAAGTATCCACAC 1.08
CGAACTTGGTCATCCAGGACAGTGAATACATTGA 0.269

Working through the 5 sequences below one at a time, give PBM binding z-score for each.
1. ATATGTAGGTTAAGGGTCATTTAGGTTGGTTCGC
2. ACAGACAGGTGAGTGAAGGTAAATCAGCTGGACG
3. GATACAGGGTCAAGGCCAGAGCACGCGTATTGAT
4. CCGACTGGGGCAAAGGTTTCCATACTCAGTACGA
5. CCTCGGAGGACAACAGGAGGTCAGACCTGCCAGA

Resp:
2.03
-0.168
0.352
-0.339
0.241
